study-target: T1, Cynomolgus TCR(AEA41865/AEA41866)-zipper protein (cynomolgus monkey)
T1 construct: also called cyTCR-zipper protein; cynoTCR zipper
T1 TCR alpha: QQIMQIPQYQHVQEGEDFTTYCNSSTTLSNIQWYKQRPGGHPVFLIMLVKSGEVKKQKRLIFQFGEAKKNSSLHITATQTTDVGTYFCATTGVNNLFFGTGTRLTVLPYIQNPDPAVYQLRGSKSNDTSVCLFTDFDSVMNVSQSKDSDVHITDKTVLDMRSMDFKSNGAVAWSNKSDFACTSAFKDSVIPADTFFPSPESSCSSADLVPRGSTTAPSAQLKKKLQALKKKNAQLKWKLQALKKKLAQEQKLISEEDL
T1 TCR beta: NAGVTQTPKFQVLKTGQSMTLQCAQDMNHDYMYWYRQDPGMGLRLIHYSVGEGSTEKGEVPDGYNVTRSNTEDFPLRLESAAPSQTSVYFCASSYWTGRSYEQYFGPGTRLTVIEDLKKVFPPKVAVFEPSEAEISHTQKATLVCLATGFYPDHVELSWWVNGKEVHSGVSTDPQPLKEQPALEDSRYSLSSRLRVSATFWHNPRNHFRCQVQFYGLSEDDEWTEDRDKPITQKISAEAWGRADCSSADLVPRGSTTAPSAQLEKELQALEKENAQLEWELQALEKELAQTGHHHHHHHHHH
experiment-notes: SPR ProteOn off-rate screen
readout-label: koff
Include the unit after the number when you answer.

- binder: "T017000577 (VHH) VHH: EVQLVESGGGVVQPGGSLRLSCVASWDVHQINFLGWYRQAPGKEREKVAHISIGDQTDYADSAKGRFTISRDESKNMVYLQMNSLRPEDTALYFCRAMSRIYPYDYWGQGTLVTVSS"
  readout-label: "koff"
  measurement: "0.00188 s⁻¹"
- binder: "T017000355 (VHH) VHH: EVQLVESGGGVVQPGGSLRLSCVASWDVHQLNFYGWYRQAPGKEREKVAHISIGDQTDYADSAKGRFTISRDESKNMVYLQMNSLRPEDTALYFCRAMSRIWPYDYWGQGTLVTVSS"
  readout-label: "koff"
  measurement: "0.00145 s⁻¹"
- binder: "T017000538 (VHH) VHH: EVQLVESGGGVVQPGGSLRLSCVASGYVHKLNFYGWYRQAPGKEREKVAHISIGDQTDYADSAKGRFTISRDESKNMVYLQMNSLRPEDTALYFCRAMSRIWPYDYWGQGTLVTVSS"
  readout-label: "koff"
  measurement: "0.000766 s⁻¹"

Now look at this one.
Fill blank: measured koff of the binder T017000518 (VHH) VHH: EVQLVESGGGVVQPGGSLRLSCVASYSVHQLNFLGWYRQAPGKEREKVAHISIGDQTDYADSAKGRFTISRDESKNMVYLQMNSLRPEDTALYFCRAMSRIWPYDYWGQGTLVTVSS is ____. 0.0268 s⁻¹
